The measurements presented in this section are drawn from patent US5413991A.

Reported IC50 values, chitinase from baker's yeast (S cerevisiae) (Saccharomyces cerevisiae).

What value of IC50 has been recorded for this entry: CNC1=NC2C(O)C(O[C@@H]3O[C@H](CO)[C@@H](O)[C@H](O)[C@H]3NC(C)=O)C(CO)C2O1 (stereo partly drawn) > 493 µM

What value of IC50 has been recorded for this entry: CC(=O)N[C@H]1[C@H](OC2C(O)C3N=C(N(C)C)OC3C2CO)O[C@H](CO)[C@@H](O)[C@@H]1O (stereo partly drawn) > 477 µM

What value of IC50 has been recorded for this entry: CNC1=NC2C(O)C(O[C@@H]3O[C@H](CO)[C@@H](O)[C@@H](O)[C@H]3NC(C)=O)C(CO)C2O1 (stereo partly drawn) > 493 µM

---

Provide the reported Chitinase Inhibitory Activity IC50, Trichoderma sp. of each item.
Biological target: chitinase from Trichoderma sp. (Chitinase T-1)
Test: Assay for chitinase inhibitory activity, chitinase from Trichoderma sp.
Assay type: biochemical
Settings: McIlvaine buffer pH 5.2, substrate 4MBTC

What value of Chitinase Inhibitory Activity IC50, Trichoderma sp. has been recorded for this entry: CC(=O)N[C@H]1[C@H](OC2C(O)C3N=C(N(C)C)OC3C2CO)O[C@H](CO)[C@@H](O)[C@@H]1O (stereo partly drawn) > 50.0 µg/mL

What value of Chitinase Inhibitory Activity IC50, Trichoderma sp. has been recorded for this entry: CNC1=NC2C(O)C(O[C@@H]3O[C@H](CO)[C@@H](O)[C@@H](O)[C@H]3NC(C)=O)C(CO)C2O1 (stereo partly drawn) > 50.0 µg/mL

What value of Chitinase Inhibitory Activity IC50, Trichoderma sp. has been recorded for this entry: CNC1=NC2C(O)C(O[C@@H]3O[C@H](CO)[C@@H](O)[C@H](O)[C@H]3NC(C)=O)C(CO)C2O1 (stereo partly drawn) > 50.0 µg/mL
